Assay protocol: Fraction unbound in rat plasma at 1 uM measured after 60 mins by equilibrium dialysis based LC/MS/MS analysis
Assay type: ADME, cell-free

| Molecule | fraction unbound at 1 h, 1 µM |
| --- | --- |
| COc1ccc(OCC2c3cc(OC)c(OC)cc3CCN2C(=O)c2cccc(Cl)c2)cc1 (stereo unspecified) | < 0.0001 |

###

Experimental system: Glutamate NMDA receptor; Grin1/Grin2c (Rattus norvegicus) (UniProt P35439+Q00961)
Assay protocol: Positive allosteric modulation of recombinant rat GluN1a/GluN2C receptor expressed in Xenopus laevis oocytes assessed as increase in glycine/L-glutamate-induced channel current at 30 uM by two-electrode voltage clamp method relative to control
Assay type: cell-based
I'd appreciate it if you marked entries 1 when %max is lower than 300% and 0 when it is not.

| Compound | Experimental system | Class |
| --- | --- | --- |
| COc1ccc(OCC2c3ccc(OC)cc3CC(=O)N2CCc2c[nH]c3ccccc23)cc1 (stereo not given) | Glutamate NMDA receptor; Grin1/Grin2c (Rattus norvegicus) (UniProt P35439+Q00961) | 1 |
| COc1ccc(OCC2c3ccc(OC)cc3CC(=O)N2Cc2c[nH]nn2)cc1 (stereo not given) | Glutamate NMDA receptor; Grin1/Grin2c (Rattus norvegicus) (UniProt P35439+Q00961) | 1 |
| COc1ccc(OC[C@@H]2c3cccn3CC(=O)N2Cc2cccc(C(F)(F)F)c2)cc1 | Glutamate NMDA receptor; Grin1/Grin2c (Rattus norvegicus) (UniProt P35439+Q00961) | 1 |
| COc1ccc(OC[C@H]2c3cccn3CC(=O)N2Cc2cccc(F)c2)cc1 | Glutamate NMDA receptor; Grin1/Grin2c (Rattus norvegicus) (UniProt P35439+Q00961) | 0 |
| COc1ccc(OCC2c3ccc(OC(C)C)cc3CC(=O)N2Cc2cccc(C(F)(F)F)c2)cc1 (stereo not given) | Glutamate NMDA receptor; Grin1/Grin2c (Rattus norvegicus) (UniProt P35439+Q00961) | 1 |

The values you see were collected from ChEMBL document CHEMBL4627400.
